Property: Uninfected cell number; scope: individual compounds
Test system: EBOV
Assay type: cell-based, Zaire Ebolavirus (Mayinga strain)
measurement.name: Uninfected cell number

| input.smiles | measurement.name | result.number |
| --- | --- | --- |
| CC(C)(C)c1nc2ccccc2c2nnc(SCC(=O)Nc3nccs3)n12 | Uninfected cell number | 0 |
| Cc1cc(N2CCN(C)CC2)nc2ccc(NC(=S)NCCCN3CCc4ccccc4C3)cc12 | Uninfected cell number | 0 |
| Cc1nn2c(NCCCN(C)C)c3c(nc2c1-c1ccccc1)CCCC3 | Uninfected cell number | 0 |

----------
Test system: MARV
test.summary: microbe, parasite or virus in culture
Assay type: cell-based, Marburgvirus (Musoke strain)
condition.notes: read-out: IC-50 (MARV)
pIC50: −log10 of the molar value.
Each record here notes measured pIC50.

| compound | pIC50 |
| --- | --- |
| Oc1ccc(N2CCN(Cc3ccc(OCCCN4CCCCC4)cc3)CC2)cc1 | 4.85 |
| COc1ccccc1C(=O)O/N=C(\N)c1ccccn1 | 4.55 |
| OC(CN1CCCCC1)Cn1c2ccc(Cl)cc2c2cc(Cl)ccc21 (centres unmarked) | 4.59 |
| CCN(CC)CCNC1=NCCn2c1cc1cc(OC)ccc12 | 4.59 |
| O=C(CCCN1CCc2[nH]c3ccc(F)cc3c2C1)c1ccc(F)cc1 | 4.60 |

----------
Reported pIC50 values are given for each entry in this list.
Test system: MARV
test.summary: microbe, parasite or virus in culture
Assay type: cell-based, Marburgvirus (Musoke strain)
condition.notes: read-out: IC-50 (MARV)
pIC50: −log10 of the molar value.

| compound | measured.on | pIC50 |
| --- | --- | --- |
| COc1ccc(NC(=O)C2C3C=CC4(O3)C2C(=O)N(CCN2CCCCC2)C4C(=O)NC2CCCC(C)C2C)cc1 (centres unmarked) | MARV | 4.60 |
| COc1ccc(C(CNC(=O)c2oc3ccc(OC)cc3c2C)N2CCCC2)cc1 (centres unmarked) | MARV | 4.59 |
| C=C1CC(C)OC(c2ccccc2OCC(O)CN2CCCCC2)C1 (centres unmarked) | MARV | 4.59 |
| Cc1cc(OCCCCCNCCO)cc(C)c1Cl | MARV | 4.60 |
| Cc1ccc(NC(=O)CN(C)C(=O)Cn2ncc(Cl)c(Cl)c2=O)cc1 | MARV | 4.62 |

----------
pIC50 reference
Test system: EBOV
test.summary: organism not typed
Format: cell-based, Zaire Ebolavirus (Mayinga strain)
condition.notes: read-out: IC-50 (EBOV)
pIC50: −log10 of the molar value.
measurement.name: pIC50

| compound | measured.on | measurement.name | result.number |
| --- | --- | --- | --- |
| Cc1cccc(C)c1OCC(O)CNC(C)c1ccccc1.Cl (centres unmarked) | EBOV | pIC50 | 5.19 |
| O=C(C#Cc1ccccc1)c1ccco1 | EBOV | pIC50 | 4.91 |
| Cc1cc(NC(=O)CCN2CCN(C/C=C/c3ccccc3)CC2)ccc1Br.Cl | EBOV | pIC50 | 5.48 |
| CCCCN(CCCC)CCNC(=O)CSCc1ccc(C)cc1.O=C(O)C(=O)O | EBOV | pIC50 | 4.92 |
| Cc1nn2c(NCCCN(C)C)c3c(nc2c1-c1ccccc1)CCCC3 | EBOV | pIC50 | 5.50 |

----------
Tested on: MARV
test.summary: microbe, parasite or virus in culture
Type: cell-based, Marburgvirus (Musoke strain)
condition.notes: read-out: IC-50 (MARV)
# Yes = IC50 below 10 µM (exclusive); No = IC50 at/above 10 µM

| compound | group |
| --- | --- |
| COc1ccc(Nc2cc(C)nc3ccc(OC)cc23)cc1 | No |
| CCCCN(CCCC)CCNC(=O)CSCc1ccc(C)cc1.O=C(O)C(=O)O | No |
| CCOc1cccc(CNCCO)c1OCc1ccc(Cl)cc1Cl.Cl | No |
| CC(C)(C)c1cc(/C=N/O)cc(C(C)(C)C)c1O | Yes |
| O=C(NC1CCCCC1)c1ccc(S(=O)(=O)N2CCCCC2)cc1 | No |
| CN(C)c1cc(NC(=O)CN2CCCC2)c2ccccc2n1.O=C(O)C(=O)O | No |
| CCOC(=O)c1c(C)n(CC(O)CN(C)C)c2cc(Br)c(OC)cc12.Cl (centres unmarked) | Yes |
| CCN(CC)CCCNc1nc(CN2CCOCC2)nc2sc3c(c12)CCC3 | No |
| COc1ccc(C(C(=O)NC2CCCCC2)N(C(=O)CCl)c2ccc(C)cc2)cc1 (centres unmarked) | No |
| S=C(Nc1ccc(Cl)cc1)NC1CCN(Cc2ccccc2)CC1 | No |
| CC(C)(CS(=O)(=O)[O-])NC(=O)CC[N+](C)(C)CCO | Yes |
| CCN(CCNCC(O)COc1ccccc1C(C)C)c1cccc(C)c1.O=C(O)C(=O)O (centres unmarked) | No |
| CCCN1CCN(CCCNC(=O)c2cc3c(=O)[nH]c4ccc(C)cc4c3s2)CC1 | No |
| N#Cc1c(NCCN)nc(-c2ccccc2)c2c1CCCC2 | Yes |
| O=C1C2CCCN2C(c2cccs2)N1c1ccc(Cl)cc1 (centres unmarked) | No |
| O=C(COC(=O)/C=C/c1cccs1)Nc1nc(-c2ccccc2)cs1 | No |
| Oc1ccc(Nc2ccnc3cc(Cl)ccc23)cc1 | No |
| CCN1CCCC1CNCC(O)COc1ccc(C(C)(C)C)cc1C.O=C(O)C(=O)O (centres unmarked) | No |
| C=C1C(=O)c2sccc2C(c2ccc(OC)c(OC)c2)C1COC(C)=O (centres unmarked) | Yes |
| CN(C)CCCNC(=S)N1CCN(c2nc(-c3ccccc3)cs2)CC1 | No |

----------
Catalogue of IC50 values
System: MARV
test.summary: microbe, parasite or virus in culture
Type: cell-based, Marburgvirus (Musoke strain)
condition.notes: read-out: IC-50 (MARV)
measurement.name: IC50

| input.smiles | result |
| --- | --- |
| O=C1COc2ccc(C(=O)CCl)cc2N1 | ~38.8 µM |
| Cc1cc(Nc2ccc(Cl)cc2)nc(N2CCOCC2)n1 | ~43.2 µM |
| Cc1cc(C(=O)c2ccccc2)c(NC(=O)CCl)s1 | ~44.4 µM |
